Entry source: patent US10323018B2

- targetOrTestSystem: hNAMPT protein (Homo sapiens (Human))
- Sequence (P43490 whole entry): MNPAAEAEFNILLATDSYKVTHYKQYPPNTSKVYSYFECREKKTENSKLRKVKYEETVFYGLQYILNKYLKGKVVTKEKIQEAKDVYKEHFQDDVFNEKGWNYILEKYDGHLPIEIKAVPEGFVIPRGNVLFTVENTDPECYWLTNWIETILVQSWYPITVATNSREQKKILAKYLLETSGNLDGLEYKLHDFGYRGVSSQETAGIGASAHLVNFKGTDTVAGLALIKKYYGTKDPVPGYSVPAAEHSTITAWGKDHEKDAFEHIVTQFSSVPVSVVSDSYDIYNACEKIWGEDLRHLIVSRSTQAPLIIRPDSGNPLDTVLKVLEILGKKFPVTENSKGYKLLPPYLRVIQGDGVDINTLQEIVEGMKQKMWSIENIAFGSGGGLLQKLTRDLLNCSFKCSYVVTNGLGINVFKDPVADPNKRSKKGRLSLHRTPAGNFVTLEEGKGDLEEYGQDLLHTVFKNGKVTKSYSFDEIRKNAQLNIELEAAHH
- experimentalProtocol: NAMPT enzyme assay (TR-FRET/HTRF with BodiPY ligand)
- Type: binding
- conditionsUsed: NAMPT inhibition at compound concentration 1 μM; read-out: Percent Inhibition
observedProperty: inhibition at 1 µM (%)
The response must be a number in % with no trailing unit.

In the examples that follow, each entry is paired with its recorded inhibition at 1 µM.
CCOc1cc(-c2ccc(F)cc2)nc2cc(C(=O)NCCCc3c[nH]nc3C)ccc12 98
CCOc1cc(-c2ccc(OC)nc2OC)nc2cc(C(=O)NCCCc3nnc[nH]3)ccc12 97
CCOc1cc(-c2ccc(OC)nc2)nc2cc(C(=O)NCCc3nc[nH]n3)ccc12 99
O=C(NCCCc1ncc[nH]1)c1ccc2c(OCCO)cc(-c3ccc(F)cc3)nc2c1 99
CCOc1c(F)c(-c2ccc(F)cc2)nc2cc(C(=O)NCCCc3nnc[nH]3)ccc12 99
CCOc1cc(-c2cncc(OC)c2)nc2cc(C(=O)NCCCc3nnc[nH]3)ccc12 94

The record that follows has no inhibition at 1 µM shown yet.
Give the reported inhibition at 1 µM for this compound. `CCOc1cc(-c2ccc(F)cc2)nc2cc(C(=O)NCCc3cn[nH]c3)ccc12`
97
